Target: OAT3 (Homo sapiens)
Sequence (Q8TCC7 1-542): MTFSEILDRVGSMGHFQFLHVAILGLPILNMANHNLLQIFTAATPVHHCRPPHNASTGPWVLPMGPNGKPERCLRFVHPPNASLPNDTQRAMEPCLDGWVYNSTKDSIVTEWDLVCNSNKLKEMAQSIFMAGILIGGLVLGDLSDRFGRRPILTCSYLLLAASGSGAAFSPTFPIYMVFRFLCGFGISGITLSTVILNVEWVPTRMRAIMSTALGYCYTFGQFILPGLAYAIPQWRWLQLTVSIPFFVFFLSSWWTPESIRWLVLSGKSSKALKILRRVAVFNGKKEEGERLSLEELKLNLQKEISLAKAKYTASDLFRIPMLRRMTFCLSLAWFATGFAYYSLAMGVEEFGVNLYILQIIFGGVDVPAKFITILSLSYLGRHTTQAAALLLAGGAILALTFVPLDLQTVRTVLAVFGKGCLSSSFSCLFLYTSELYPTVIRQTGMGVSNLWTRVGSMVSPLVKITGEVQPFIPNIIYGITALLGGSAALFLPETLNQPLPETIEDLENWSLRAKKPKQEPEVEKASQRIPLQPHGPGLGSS
Assay: OAT3 uptake study in ciPTEC-OAT3
Conditions: control vs probenecid 300 μM
MEASUREMENT LABEL: OAT3 substrate status (uptake in ciPTEC-OAT3)

> print(dat)
                                   compound                     val
1  CCCCNc1cc(C(=O)O)cc(S(N)(=O)=O)c1Oc1ccccc1 [bumetanide]  dual OAT1/3 substrates
2                    Cc1ncc(CO)c(C(=O)O)c1O  dual OAT1/3 substrates
3  CCCc1nc(C(C)(C)O)c(C(=O)O)n1Cc1ccc(-c2ccccc2-c2nnn[nH]2)cc1  dual OAT1/3 substrates
